Test: Single-dose pharmacokinetic study (intravenous and intragastric) with HPLC-UV plasma assay, non-compartmental analysis
Type: in vivo, Sprague-Dawley rats
Details: male, Sprague-Dawley, plasma, po; rat, intragastric, 50 mg/kg, n = 6
MEASUREMENT LABEL: Cmax (µM)
Write it as a number; the unit µM goes unstated.

Challenge: Give the measured Cmax of COc1cc(C(C)=O)ccc1O [Apocynin, 4-hydroxy-3-methoxyacetophenone] .
Response given: 8

* * *

Experiment: Single-dose pharmacokinetic study (intravenous and intragastric) with HPLC-UV plasma assay, non-compartmental analysis
Assay type: in vivo, Sprague-Dawley rats
Settings: male, Sprague-Dawley, plasma, po; rat, intragastric, 50 mg/kg, n = 6; read-out: MRT0–t (converted)
MEASUREMENT LABEL: MRT last (min)
Could you give me the number in min? Just the number is fine.

Challenge: Any idea what its MRT last is? The compound is COc1cc(C(C)=O)ccc1O [Apocynin, 4-hydroxy-3-methoxyacetophenone]
Response given: 8.1

* * *

Test: Single-dose pharmacokinetic study (intravenous and intragastric) with HPLC-UV plasma assay, non-compartmental analysis
Type: in vivo, Sprague-Dawley rats
Details: male, Sprague-Dawley, plasma, po; rat, intragastric, 40 mg/kg, n = 6
MEASUREMENT LABEL: Tmax (min)
Your answer is read as min, so omit the unit and give the number.

Challenge: Dear colleague, I am looking for the recorded Tmax of the following compound: `COc1cc(C(C)=O)cc(/C=[N+](\[O-])C(C)(C)C)c1O`
Response given: 25.8

* * *

Experiment: Single-dose pharmacokinetic study (intravenous and intragastric) with HPLC-UV plasma assay, non-compartmental analysis
Assay type: in vivo, Sprague-Dawley rats
Conditions: male, Sprague-Dawley, plasma, oral; rat, intragastric 50 mg/kg vs intravenous 50 mg/kg; read-out: F (absolute oral bioavailability)
MEASUREMENT LABEL: bioavailability (%)
Respond with the bare value in %.

Challenge: Reported bioavailability for COc1cc(C(C)=O)ccc1O [Apocynin, 4-hydroxy-3-methoxyacetophenone] : what is it?
Response given: 2.8

* * *

Assay: Single-dose pharmacokinetic study (intravenous and intragastric) with HPLC-UV plasma assay, non-compartmental analysis
Type: in vivo, Sprague-Dawley rats
Settings: male, Sprague-Dawley, plasma; rat, intravenous, 50 mg/kg (0.302 mmol/kg), n = 8; read-out: T1/2
MEASUREMENT LABEL: half-life (min)
Reply numerically in min, unit not repeated.

Challenge: # get_value(readout='half-life', item= COc1cc(C(C)=O)ccc1O [Apocynin, 4-hydroxy-3-methoxyacetophenone] )
Response given: 6.1

* * *

Assay: Single-dose pharmacokinetic study (intravenous and intragastric) with HPLC-UV plasma assay, non-compartmental analysis
Assay type: in vivo, Sprague-Dawley rats
Details: male, Sprague-Dawley, plasma, oral; rat, intragastric 40 mg/kg vs intravenous 40 mg/kg; read-out: F (absolute oral bioavailability)
MEASUREMENT LABEL: bioavailability (%)
// note: answer is a bare numeric in %

Challenge: Request the reported bioavailability associated with COc1cc(C(C)=O)cc(/C=[N+](\[O-])C(C)(C)C)c1O [AN-1]
Response given: 78

* * *

Assay: Single-dose pharmacokinetic study (intravenous and intragastric) with HPLC-UV plasma assay, non-compartmental analysis
Format: in vivo, Sprague-Dawley rats
Conditions: male, Sprague-Dawley, plasma, po; rat, intragastric, 50 mg/kg, n = 6
MEASUREMENT LABEL: Tmax (min)
Just the number in min, nothing appended.

Challenge: GET /values?readout=Tmax&item= COc1cc(C(C)=O)ccc1O [Apocynin, 4-hydroxy-3-methoxyacetophenone]
Response given: 5.3
